Where do the numbers come from? From paper PMC8810880.

# EXPERIMENTAL_TARGET: Am_SOD (recombinant Cu, Zn-superoxide dismutase) (Avicennia marina, UniProt Q9AXH2)
# Construct: full-length 459 bp ORF in pET22b+ (NdeI/XhoI), 6xHis tag (printed as N-terminal); homodimer ~32-33 kDa, monomer ~16 kDa; no signal peptide found
# Sequence (Q9AXH2 1-152): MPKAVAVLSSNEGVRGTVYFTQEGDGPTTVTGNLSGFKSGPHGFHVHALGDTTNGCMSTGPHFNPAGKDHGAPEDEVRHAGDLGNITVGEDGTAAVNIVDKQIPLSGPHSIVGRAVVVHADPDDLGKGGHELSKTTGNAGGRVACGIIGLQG
# PROCEDURE_TEXT: riboflavin-NBT SOD inhibition assay, A560
READOUT: pIC50
Answers are plain numbers, as −log10 of the molar value.

Request: Please report the recorded pIC50 for CCN(CC)C(=S)S [DDC, sodium diethyldithiocarbamate trihydrate] .
Result: 2.82
